target: mouse TAAR1 (Mus musculus, UniProt Q923Y8); construct: expressed in transfected cells; test: In vitro functional activity (cAMP assay) at mouse TAAR1 receptor in recombinant HEK293 cells; format: cell-based
Sequence (Q923Y8 whole entry): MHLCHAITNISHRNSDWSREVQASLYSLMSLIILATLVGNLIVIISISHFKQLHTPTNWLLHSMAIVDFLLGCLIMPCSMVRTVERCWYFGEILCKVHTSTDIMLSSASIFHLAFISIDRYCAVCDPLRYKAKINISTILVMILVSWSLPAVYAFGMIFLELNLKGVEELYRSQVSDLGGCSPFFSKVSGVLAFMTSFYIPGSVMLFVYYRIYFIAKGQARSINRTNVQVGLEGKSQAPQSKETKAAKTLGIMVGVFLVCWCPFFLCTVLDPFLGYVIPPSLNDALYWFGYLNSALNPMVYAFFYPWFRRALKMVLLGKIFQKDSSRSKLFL
property_label: EC50 (nM)

1) NC1=N[C@@H](c2ccc(Cl)cc2C(F)(F)F)CO1	1.3

* * *

target: mouse TAAR1 (Mus musculus, UniProt Q923Y8); construct: expressed in transfected cells; test: In vitro functional activity (cAMP assay) at mouse TAAR1 receptor in recombinant HEK293 cells; assay type: cell-based; conditions: HEK293; relative to phenylethylamine having 100% agonistic activity; read-out: % efficacy
Counter-ions that a name gives are not always drawn.
Answer False if Emax is under 70%, and True if it is 70% or more.

1) CC[C@@H](C[C@H]1COC(N)=N1)c1ccccc1	True
2) O=C(Nc1ccc(C2CCNC2)cc1)Nc1ccc(Cl)cn1 (racemic) [Example S7, hydrochloride]	False
3) CCN(C[C@H]1COC(N)=N1)c1ccccc1	False
4) O=C(Nc1ccc(C2CCNC2)cc1)c1ccc(Cl)cn1 (racemic) [Example S8, hydrochloride]	False
5) O=C(Nc1ccc([C@H]2CNCCO2)cc1)c1ccnc(C(F)(F)F)c1 [Example S14, hydrochloride]	False
6) O=C(Nc1ccc([C@H]2CNCCO2)cc1)c1ccc(Cl)nc1 [Example S17, hydrochloride]	False
7) NC1=N[C@@H](CCc2ccc(NC(=O)c3ccc(Cl)cc3)cc2)CO1	False
8) O=C(Nc1ccc(C2CCNC2)cc1)c1ccc(Cl)cc1 (racemic) [Example S6, hydrochloride]	True

The values you see were collected from patent US9132136B2.
